# Target: ABCC5 (Homo sapiens, UniProt O15440)
# Construct: inside-out vesicles (IOV)s where erythrocytes from healthy, human donors were sampled; endogenous in cells; host or cells: inside-out vesicles from erythrocytes of healthy human donors
# Sequence (O15440 whole entry): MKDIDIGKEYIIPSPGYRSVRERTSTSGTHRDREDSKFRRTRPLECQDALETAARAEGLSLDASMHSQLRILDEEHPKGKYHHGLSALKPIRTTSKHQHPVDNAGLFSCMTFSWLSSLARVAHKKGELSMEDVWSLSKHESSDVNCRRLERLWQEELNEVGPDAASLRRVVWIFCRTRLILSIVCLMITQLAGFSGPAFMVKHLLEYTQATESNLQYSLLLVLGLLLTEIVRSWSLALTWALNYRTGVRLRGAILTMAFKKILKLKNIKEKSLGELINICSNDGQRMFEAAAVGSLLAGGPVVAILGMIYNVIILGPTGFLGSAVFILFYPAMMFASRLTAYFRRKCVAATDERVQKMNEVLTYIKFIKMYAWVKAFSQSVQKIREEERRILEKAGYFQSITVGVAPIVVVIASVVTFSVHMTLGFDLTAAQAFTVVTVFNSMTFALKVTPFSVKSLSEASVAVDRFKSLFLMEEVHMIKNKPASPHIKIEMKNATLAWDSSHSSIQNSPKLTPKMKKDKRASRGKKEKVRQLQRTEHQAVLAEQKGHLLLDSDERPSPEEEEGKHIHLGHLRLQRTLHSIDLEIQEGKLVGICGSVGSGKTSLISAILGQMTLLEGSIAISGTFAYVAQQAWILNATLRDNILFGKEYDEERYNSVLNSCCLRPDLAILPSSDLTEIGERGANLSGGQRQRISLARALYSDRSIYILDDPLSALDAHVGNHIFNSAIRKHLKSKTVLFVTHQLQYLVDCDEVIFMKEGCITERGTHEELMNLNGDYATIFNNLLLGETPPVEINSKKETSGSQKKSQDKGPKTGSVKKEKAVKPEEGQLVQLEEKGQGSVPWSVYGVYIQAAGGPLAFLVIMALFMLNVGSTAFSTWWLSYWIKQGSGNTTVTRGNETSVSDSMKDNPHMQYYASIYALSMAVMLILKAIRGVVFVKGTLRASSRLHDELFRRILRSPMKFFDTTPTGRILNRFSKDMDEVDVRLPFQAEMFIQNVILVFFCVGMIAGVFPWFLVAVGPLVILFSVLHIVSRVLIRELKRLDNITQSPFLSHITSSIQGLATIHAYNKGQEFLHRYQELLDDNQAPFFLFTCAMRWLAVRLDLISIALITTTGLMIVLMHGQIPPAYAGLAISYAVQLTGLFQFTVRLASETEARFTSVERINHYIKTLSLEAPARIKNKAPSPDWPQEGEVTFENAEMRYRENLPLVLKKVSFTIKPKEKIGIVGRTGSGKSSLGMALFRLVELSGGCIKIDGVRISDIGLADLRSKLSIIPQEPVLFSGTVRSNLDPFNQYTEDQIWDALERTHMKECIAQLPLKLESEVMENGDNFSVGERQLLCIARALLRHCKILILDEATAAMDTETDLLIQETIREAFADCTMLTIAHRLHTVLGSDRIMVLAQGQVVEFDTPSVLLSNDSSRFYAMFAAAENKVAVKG
# Method: Inhibition of [3H]-cGMP efflux in erythrocyte inside-out vesicles
# Format: biochemical
# Test Settings: 32 °C
Measured Endpoint: pIC50
Numbers only, as −log10 of the molar value.

query: Give the reported value of pIC50 for this record: CC(=O)CCCCn1c(=O)c2c(ncn2C)n(C)c1=O
result: 6.14

###

# Target: ABCC5 (Homo sapiens, UniProt O15440)
# Construct: inside-out vesicles (IOV)s where erythrocytes from healthy, human donors were sampled; endogenous in cells; host or cells: inside-out vesicles from erythrocytes of healthy human donors
# Method: Inhibition of [3H]-cGMP efflux in erythrocyte inside-out vesicles
# Type: biochemical
# Test Settings: 32 °C; Cheng-Prusoff
Measured Endpoint: Ki (µM)
Numbers only, in µM.

query: Give the reported value of Ki for this record: CC(=O)CCCCn1c(=O)c2c(ncn2C)n(C)c1=O [pentoxifylline]
result: 0.409

###

# Target: Recombinant human PDE5 (Homo sapiens, UniProt O76074)
# Construct: purchased Sigma-Aldrich
# Method: Inhibition of PDE5-mediated enzymatic breakdown of cGMP
# Assay type: biochemical
# Test Settings: 32 °C; Cheng-Prusoff
Measured Endpoint: pKi
Numbers only, as −log10 of the molar value.

query: Give the reported value of pKi for this record: CC(=O)CCCCn1c(=O)c2c(ncn2C)n(C)c1=O
result: 5.40

###

# Target: Recombinant human PDE3
# Method: Inhibition of PDE3-mediated enzymatic breakdown of cAMP
# Type: biochemical
# Test Settings: 20 °C; Cheng-Prusoff
Measured Endpoint: Ki (nM)
One number for each entry, in nM.

query: Give the reported value of Ki for this record: CC(=O)CCCCn1c(=O)c2c(ncn2C)n(C)c1=O
result: 1420

###

# Target: Recombinant human PDE3
# Method: Inhibition of PDE3-mediated enzymatic breakdown of cAMP
# Assay type: biochemical
# Test Settings: 37 °C; Cheng-Prusoff
Measured Endpoint: Ki (nM)
Numbers only, in nM.

query: Give the reported value of Ki for this record: CC(=O)CCCCn1c(=O)c2c(ncn2C)n(C)c1=O
result: 723

###

# Target: ABCC4 (Homo sapiens, UniProt O15439)
# Construct: inside-out vesicles (IOV)s where erythrocytes from healthy, human donors were sampled; endogenous in cells; host or cells: inside-out vesicles from erythrocytes of healthy human donors
# Sequence (O15439 whole entry): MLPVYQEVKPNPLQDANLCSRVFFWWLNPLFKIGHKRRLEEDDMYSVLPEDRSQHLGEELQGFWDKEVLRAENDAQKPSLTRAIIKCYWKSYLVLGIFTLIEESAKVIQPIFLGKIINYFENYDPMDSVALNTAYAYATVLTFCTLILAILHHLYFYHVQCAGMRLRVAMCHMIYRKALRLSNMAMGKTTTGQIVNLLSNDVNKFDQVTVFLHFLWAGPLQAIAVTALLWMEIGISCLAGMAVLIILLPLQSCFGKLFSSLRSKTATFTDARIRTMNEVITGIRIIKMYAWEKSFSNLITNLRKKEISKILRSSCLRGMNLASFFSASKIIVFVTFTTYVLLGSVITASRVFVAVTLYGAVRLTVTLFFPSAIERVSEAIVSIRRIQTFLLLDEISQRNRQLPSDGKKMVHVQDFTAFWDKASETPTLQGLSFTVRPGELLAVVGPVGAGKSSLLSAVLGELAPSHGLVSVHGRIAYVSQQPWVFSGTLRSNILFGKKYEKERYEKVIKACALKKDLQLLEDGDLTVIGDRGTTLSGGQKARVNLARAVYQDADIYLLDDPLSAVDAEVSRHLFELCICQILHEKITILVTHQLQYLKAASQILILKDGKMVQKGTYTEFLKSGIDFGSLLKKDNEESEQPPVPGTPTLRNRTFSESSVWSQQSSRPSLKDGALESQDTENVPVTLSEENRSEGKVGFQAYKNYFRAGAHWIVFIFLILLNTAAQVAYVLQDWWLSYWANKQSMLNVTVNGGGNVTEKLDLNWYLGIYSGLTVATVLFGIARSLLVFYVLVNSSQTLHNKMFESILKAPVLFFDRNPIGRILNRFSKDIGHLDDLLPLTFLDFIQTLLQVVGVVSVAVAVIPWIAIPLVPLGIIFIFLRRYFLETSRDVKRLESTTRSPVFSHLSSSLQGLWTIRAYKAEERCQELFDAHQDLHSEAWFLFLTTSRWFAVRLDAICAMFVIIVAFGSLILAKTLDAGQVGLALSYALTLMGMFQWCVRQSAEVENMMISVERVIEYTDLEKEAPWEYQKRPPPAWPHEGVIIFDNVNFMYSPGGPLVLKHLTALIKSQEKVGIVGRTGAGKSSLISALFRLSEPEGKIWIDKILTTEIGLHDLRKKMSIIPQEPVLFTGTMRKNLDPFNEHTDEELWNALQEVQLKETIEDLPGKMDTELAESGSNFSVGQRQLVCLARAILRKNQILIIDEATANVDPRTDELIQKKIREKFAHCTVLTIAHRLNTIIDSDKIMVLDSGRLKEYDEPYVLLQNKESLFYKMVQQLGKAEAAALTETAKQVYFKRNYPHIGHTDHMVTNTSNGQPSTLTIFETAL
# Method: biochemical
# Type: biochemical
# Test Settings: 37 °C; read-out: IC50 for inhibition of cAMP-efflux
Measured Endpoint: pIC50
Give bare numbers, as −log10 of the molar value.

query: Give the reported value of pIC50 for this record: CC(=O)CCCCn1c(=O)c2c(ncn2C)n(C)c1=O
result: 5.88

###

# Target: Recombinant human PDE5 (Homo sapiens)
# Construct: purchased Sigma-Aldrich
# Method: Inhibition of PDE5-mediated enzymatic breakdown of cGMP
# Format: biochemical
# Test Settings: 34 °C; Cheng-Prusoff
# Procedure: Assessment of pentoxifyllines ability to inhibit the phosphodiesterase enzymes were performed by incubating cAMP or cGMP with seven different concentrations of pentoxifylline. […] Samples were analyzed for cGMP/GMP and cAMP/AMP content, using MS [14, 15]. Quantification of cAMP/AMP, cGMP/GMP and pentoxifylline in PDE- and intracellular access experiments were performed with liquid chromatography tandem mass spectrometry (LC–MS/MS). […]
Measured Endpoint: pKi
One number for each entry, as −log10 of the molar value.

query: Give the reported value of pKi for this record: CC(=O)CCCCn1c(=O)c2c(ncn2C)n(C)c1=O [pentoxifylline]
result: 5.57
